Target Entity: human bradykinin 1 receptor (B1R) (Homo sapiens, UniProt P46663)
Construct: expressed in transfected cells
Sequence (P46663 whole entry): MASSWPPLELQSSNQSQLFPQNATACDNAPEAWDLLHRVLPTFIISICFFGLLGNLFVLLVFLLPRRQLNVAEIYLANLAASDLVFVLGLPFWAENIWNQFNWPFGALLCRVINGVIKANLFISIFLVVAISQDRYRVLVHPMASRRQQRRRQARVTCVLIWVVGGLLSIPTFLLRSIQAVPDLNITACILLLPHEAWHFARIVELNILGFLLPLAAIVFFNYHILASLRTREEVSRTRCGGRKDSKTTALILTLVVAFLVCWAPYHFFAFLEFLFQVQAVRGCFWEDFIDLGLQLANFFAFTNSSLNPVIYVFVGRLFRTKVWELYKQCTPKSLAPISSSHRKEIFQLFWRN
Assay Notes: FLIPR Ca2+ assay, B1R antagonism, human
Format: cell-based
Conditions Used: 10 μM test substance; CHO K1 cells with human B1R gene (hB1R cells); Lys-Des-Arg9-bradykinin at EC80; % inhibition compared with the maximum achievable inhibition; read-out: B1R antagonism, human [10 μM] % inhibition
Recorded Metric: inhibition at 10 µM (%)
I only need the number, in %, no unit after it.

COc1cc(C)c(S(=O)(=O)N2CCCCC2COCC(=O)N2CCC(OCCCN3CCCC3)(c3cccnc3)CC2)c(C)c1 (centres unmarked); 99
CN1CCN(CCCOC2(c3cccnc3)CCN(C(=O)CC(NS(=O)(=O)c3ccc4ccccc4c3)c3ccccc3)CC2)CC1 (centres unmarked); 50
COc1cc(C)c(S(=O)(=O)N(C)CCOCC(=O)N2CCC(OCCN3CCCC3)(c3cccnc3)CC2)c(C)c1; 98
COc1cc(C)c(S(=O)(=O)N2CCCCC2COCC(=O)N2CCC(OCCCN3CCCCC3)(c3cccnc3)CC2)c(C)c1 (centres unmarked); 102
CN1CCN(CCOC2(c3cccnc3)CCN(C(=O)COCC3CCc4ccccc4N3S(=O)(=O)c3ccc(Cl)c(Cl)c3)CC2)CC1 (centres unmarked); 74
O=C(COCC1CCc2ccccc2N1S(=O)(=O)c1ccc(Cl)c(Cl)c1)N1CCC(OCCN2CCCCC2)(c2cccnc2)CC1 (centres unmarked); 103

// fetch human bradykinin 1 receptor (B1R) (Homo sapiens, UniProt P46663) inhibition at 10 µM for COc1cc(C)c(S(=O)(=O)N2CCCCC2CCCC(=O)N2CCC(OCCN3CCCC3)(c3cccnc3)CC2)c(C)c1 (centres unmarked)
100

What would you report for O=C(CC(NS(=O)(=O)c1ccc2ccccc2c1)c1ccccc1)N1CCC(OCCN2CCCCC2)(c2cccnc2)CC1 (centres unmarked) ?
103

Same lookup for `COc1cc(C)c(S(=O)(=O)N(CCOCC(=O)N2CCC(OCCN3CCCC3)(c3cccnc3)CC2)c2ccccc2)c(C)c1` , please.
100

Here is the next compound: `COc1cc(C)c(S(=O)(=O)N(C)CCOCC(=O)N2CCC(OCCCN3CCN(C)CC3)(c3cccnc3)CC2)c(C)c1`
99

Also COc1cc(C)c(S(=O)(=O)N2c3ccccc3OCC2COCC(=O)N2CCC(OCCN3CCCC3)(c3cccc(F)c3)CC2)c(C)c1 (centres unmarked) ?
98

What do you get for `COc1cc(C)c(S(=O)(=O)N(C)CCOCC(=O)N2CCC(OCCN3CCCC3)(c3ccncc3)CC2)c(C)c1C` ?
100

What about this compound? O=C(CCCC1CCCCN1S(=O)(=O)c1ccc2ccccc2c1)N1CCC(OCCN2CCCC2)(c2cccnc2)CC1 (centres unmarked)
95

Try Cc1cc(S(=O)(=O)N2CCCCC2CCC(=O)N2CCC(OCCN3CCCC3)(c3cccnc3)CC2)c(C)cc1Cl (centres unmarked) next.
86

###

Target Entity: bradykinin 1 receptor (B1R) of the rat (Rattus norvegicus, UniProt P97583)
Construct: expressed in transfected cells
Sequence (P97583 whole entry): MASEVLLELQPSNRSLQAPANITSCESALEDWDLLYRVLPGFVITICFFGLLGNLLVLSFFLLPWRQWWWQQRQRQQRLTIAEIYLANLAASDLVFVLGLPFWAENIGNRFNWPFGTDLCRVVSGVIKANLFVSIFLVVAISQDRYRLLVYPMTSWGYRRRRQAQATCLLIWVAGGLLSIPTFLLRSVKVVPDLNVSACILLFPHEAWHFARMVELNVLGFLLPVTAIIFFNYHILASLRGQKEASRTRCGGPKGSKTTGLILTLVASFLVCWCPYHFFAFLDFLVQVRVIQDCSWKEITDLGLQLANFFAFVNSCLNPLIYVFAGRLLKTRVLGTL
Assay Notes: FLIPR Ca2+ assay, B1R antagonism, rat
Type: cell-based
Conditions Used: CHO-K1, 10 μM test substance; CHO K1 cells with rat B1R gene (rB1R cells); Des-Arg9-bradykinin at EC80; % inhibition compared with the maximum achievable inhibition; read-out: B1R antagonism, rat [10 μM] % inhibition
Quick reference for inhibition at 10 µM among some compounds
// units = %; emit number, no label

COc1cc(C)c(S(=O)(=O)N2CCCC[C@H]2COCC(=O)N2CCC(OCCn3ccnc3)(c3cccnc3)CC2)c(C)c1; 102
O=C(CCCC1CCCCN1S(=O)(=O)c1ccc2ccccc2c1)N1CCC(OCCN2CCCC2)(c2cccnc2)CC1 (centres unmarked); 101
O=C(CC(NS(=O)(=O)c1ccc2ccccc2c1)c1ccccc1)N1CCC(OCCN2CCCC2)(c2ccc(F)cc2)CC1 (centres unmarked); 90
COc1cc(C)c(S(=O)(=O)N(CCOCC(=O)N2CCC(OCCN3CCCC3)(c3cccnc3)CC2)C2CC2)c(C)c1; 101
COc1cc(C)c(S(=O)(=O)N2c3ccccc3OCC2COCC(=O)N2CCC(OCCN3CCCC3)(c3cccc(F)c3)CC2)c(C)c1 (centres unmarked); 97

Query for bradykinin 1 receptor (B1R) of the rat (Rattus norvegicus, UniProt P97583): what inhibition at 10 µM does the record show for `Cc1cccc(Cl)c1S(=O)(=O)N1CCCC[C@H]1COCC(=O)N1CCC(OCCN2CCCC2)(c2cccnc2)CC1` ?
105

Let us now turn to COc1cc(C)c(S(=O)(=O)N2CCCCC2CCOCC(=O)N2CCC(OCCN3CCCC3)(c3cccnc3)CC2)c(C)c1 (centres unmarked)
96

Please do the same for Cc1cccc(Cl)c1S(=O)(=O)N1CCCCC1COCC(=O)N1CCC(OCCN2CCCC2)(c2ccc(F)cc2)CC1 (centres unmarked) as well.
93

Same lookup for `COc1cc(C)c(S(=O)(=O)N(CCOCC(=O)N2CCC(OCCN3CCCC3)(c3cccnc3)CC2)c2ccccc2)c(C)c1` , please.
103

Moving on to `COc1cc(C)c(S(=O)(=O)N2CCCC[C@H]2COCC(=O)N2CCC(OCCN3CCCC3)(c3cccc(C(F)(F)F)c3)CC2)c(C)c1`
96

Try COc1cc(C)c(S(=O)(=O)N2CCCCC2CCCC(=O)N2CCC(OCCN3CCCC3)(c3cccnc3)CC2)c(C)c1 (centres unmarked) next.
102

Entry to check: `COc1cc(C)c(S(=O)(=O)N2CCCC[C@H]2COCC(=O)N2CCC(COCCN3CCCC3)(c3cccnc3)CC2)c(C)c1`
104

What would you report for `COc1cc(C)c(S(=O)(=O)N2c3ccccc3CC[C@H]2COCC(=O)N2CCC(OCCN3CCCC3)(c3cccnc3)CC2)c(C)c1` ?
100

Now consider O=C(CC(NS(=O)(=O)c1ccc2ccccc2c1)c1ccccc1)N1CCC(OCCCN2CCCCC2)(c2cccnc2)CC1 (centres unmarked) .
101

###

Target Entity: human bradykinin 1 receptor (B1R) (Homo sapiens, UniProt P46663)
Construct: expressed in transfected cells
Assay Notes: FLIPR Ca2+ assay, B1R antagonism, human
Type: cell-based
Conditions Used: 10 μM test substance; CHO K1 cells with human B1R gene (hB1R cells); Lys-Des-Arg9-bradykinin at EC80; % inhibition compared with the maximum achievable inhibition; read-out: B1R antagonism, human [10 μM] % inhibition
The compounds listed here are annotated with their inhibition at 10 µM.
Remember to follow the number with its unit.

# example entries with known answers
Cc1cc(S(=O)(=O)N2CCCCC2CCC(=O)N2CCC(OCCCN3CCCCC3)(c3cccnc3)CC2)c(C)cc1Cl (stereo not drawn); 103%
COc1cc(C)c(S(=O)(=O)N2c3ccccc3CCC2COCC(=O)N2CCC(OCCN3CCCC3)(c3cccc(F)c3)CC2)c(C)c1 (stereo not drawn); 99%
COc1cc(C)c(S(=O)(=O)N2CCCCC2CCCC(=O)N2CCC(OCCN3CCCC3)(c3cccc(F)c3)CC2)c(C)c1 (stereo not drawn); 100%
O=C(CC(NS(=O)(=O)c1ccc2ccccc2c1)c1ccccc1)N1CCC(OCCCN2CCCC2)(c2cccnc2)CC1 (stereo not drawn); 95%
COc1cc(C)c(S(=O)(=O)N2CCCCC2COCC(=O)N2CCC(OCCN3CCN(C)CC3)(c3cccnc3)CC2)c(C)c1 (stereo not drawn); 97%
CN1CCN(CCOC2(c3cccnc3)CCN(C(=O)CC3CCCCN3S(=O)(=O)c3cccc(C(F)(F)F)c3)CC2)CC1 (stereo not drawn); 31%
COc1cc(C)c(S(=O)(=O)N2CCCC[C@H]2COCC(=O)N2CCC(OCCN3CCCC3)(c3ccncc3)CC2)c(C)c1; 100%
O=C(COCC1CCCCN1S(=O)(=O)c1ccccc1C(F)(F)F)N1CCC(OCCN2CCCC2)(c2cccc(F)c2)CC1 (stereo not drawn); 100%

What measured inhibition at 10 µM is associated with `COc1cc(C)c(S(=O)(=O)N(C)CCOCC(=O)N2CCC(OCCCN3CCCC3)(c3cccnc3)CC2)c(C)c1` on human bradykinin 1 receptor (B1R) (Homo sapiens, UniProt P46663)?
100%

Now consider COc1cc(C)c(S(=O)(=O)N2CCCCC2COCC(=O)N2CCC(OCCN3CCCC3)(c3ccncc3)CC2)c(C)c1 (stereo not drawn) .
100%

What would you report for O=C(COCC1CCCCN1S(=O)(=O)c1ccccc1C(F)(F)F)N1CCC(OCCN2CCCC2)(c2cccnc2)CC1 (stereo not drawn) ?
100%

# iterate: COc1cc(C)c(S(=O)(=O)N2CCCCC2COCC(=O)N2CCC(OCCN3CCCC3)(c3cccc(F)c3)CC2)c(C)c1 (stereo not drawn)
100%

What about this compound? `Cc1cccc(Cl)c1S(=O)(=O)N1CCCC[C@H]1COCC(=O)N1CCC(OCCN2CCCC2)(c2cccnc2)CC1`
99%

Moving on to the next compound: O=C(COCC1CCc2ccccc2N1S(=O)(=O)c1ccc(Cl)c(Cl)c1)N1CCC(OCCCN2CCCC2)(c2cccnc2)CC1 (stereo not drawn)
76%

Proceed to COc1cc(C)c(S(=O)(=O)N2CCCC[C@H]2COCC(=O)N2CCC(OCCN3CCCC3)(c3cccnc3)C2)c(C)c1 (stereo partly drawn)
100%
